Measured IC50 values are reported for all entries that follow.
target: Human immunodeficiency virus type 1 integrase (Human immunodeficiency virus 1, UniProt Q7ZJM1); experiment: Inhibition of Human immunodeficiency virus 1 integrase strand transfer activity after 30 mins by polyacrylamide gel electrophoresis
Sequence (Q7ZJM1 whole entry): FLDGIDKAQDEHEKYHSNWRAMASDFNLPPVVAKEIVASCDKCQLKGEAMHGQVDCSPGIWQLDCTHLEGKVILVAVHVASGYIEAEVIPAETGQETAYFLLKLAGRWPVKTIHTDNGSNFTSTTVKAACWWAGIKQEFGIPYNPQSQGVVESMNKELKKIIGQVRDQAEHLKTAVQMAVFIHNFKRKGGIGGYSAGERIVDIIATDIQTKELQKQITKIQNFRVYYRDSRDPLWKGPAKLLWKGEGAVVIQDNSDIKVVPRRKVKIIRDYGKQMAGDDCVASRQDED
Only the number, expressed in µM, is required.

Below, each entry is followed by its recorded IC50 result.
In [3]: df
Out[3]:
                                chem_smiles  value_reported
0  O=C(O)c1cc(F)cc(C(=O)/C=C/c2cc(Cl)ccc2Cl)c1O              29
1  O=C(O)c1cc(Br)cc(C(=O)/C=C/c2cc3c(cc2Cl)OCO3)c1O              63
2  O=C(O)c1cc(Br)cc(C(=O)/C=C/c2ccc(Cl)c(Cl)c2)c1O              14
3  O=C(O)c1cc(Br)cc(C(=O)/C=C/c2ccccc2OCc2ccccc2)c1O               9
4   O=C(O)c1cc(Br)cc(C(=O)/C=C/c2ccccc2)c1O              25
5  O=C(O)c1cc(Br)cc(C(=O)/C=C/c2cc(Cl)ccc2Cl)c1O              18
6  O=C(O)c1cc(F)cc(C(=O)/C=C/c2ccc(Cl)cc2Cl)c1O              24
7  N#Cc1cc(Br)cc(C(=O)/C=C/c2c(Cl)ccc(Cl)c2Cl)c1O              44

QUERY: For the compound COc1cccc(/C=C/C(=O)c2cc(Br)cc(C(=O)O)c2O)c1OC , what IC50 is on record?
RESULT: 34

QUERY: For the compound O=C(O)c1cc(Cl)cc(C(=O)/C=C/c2cc(Cl)cc(Cl)c2Cl)c1O , what IC50 is on record?
RESULT: 17

QUERY: For the compound O=C(O)c1cc(F)cc(C(=O)/C=C/c2ccc(Cl)cc2)c1O , what IC50 is on record?
RESULT: 17

QUERY: For the compound O=C(O)c1cc(Br)cc(C(=O)/C=C/c2ccc(Cl)cc2)c1O , what IC50 is on record?
RESULT: 12

QUERY: For the compound O=C(O)c1cc(Br)cc(C(=O)/C=C/c2ccc3sccc3c2)c1O , what IC50 is on record?
RESULT: 11

QUERY: For the compound O=C(O)c1cc(Cl)cc(C(=O)/C=C/c2cccc(Cl)c2Cl)c1O , what IC50 is on record?
RESULT: 92
